tgt: CFTR ΔF508 mutant (Homo sapiens, UniProt P13569, DEL508-508)
Construct: expressed in transfected cells; host or cells: CFBE41o- (adenoviral transduction)
Sequence (P13569 with tags, fused parts or gaps DEL508-508): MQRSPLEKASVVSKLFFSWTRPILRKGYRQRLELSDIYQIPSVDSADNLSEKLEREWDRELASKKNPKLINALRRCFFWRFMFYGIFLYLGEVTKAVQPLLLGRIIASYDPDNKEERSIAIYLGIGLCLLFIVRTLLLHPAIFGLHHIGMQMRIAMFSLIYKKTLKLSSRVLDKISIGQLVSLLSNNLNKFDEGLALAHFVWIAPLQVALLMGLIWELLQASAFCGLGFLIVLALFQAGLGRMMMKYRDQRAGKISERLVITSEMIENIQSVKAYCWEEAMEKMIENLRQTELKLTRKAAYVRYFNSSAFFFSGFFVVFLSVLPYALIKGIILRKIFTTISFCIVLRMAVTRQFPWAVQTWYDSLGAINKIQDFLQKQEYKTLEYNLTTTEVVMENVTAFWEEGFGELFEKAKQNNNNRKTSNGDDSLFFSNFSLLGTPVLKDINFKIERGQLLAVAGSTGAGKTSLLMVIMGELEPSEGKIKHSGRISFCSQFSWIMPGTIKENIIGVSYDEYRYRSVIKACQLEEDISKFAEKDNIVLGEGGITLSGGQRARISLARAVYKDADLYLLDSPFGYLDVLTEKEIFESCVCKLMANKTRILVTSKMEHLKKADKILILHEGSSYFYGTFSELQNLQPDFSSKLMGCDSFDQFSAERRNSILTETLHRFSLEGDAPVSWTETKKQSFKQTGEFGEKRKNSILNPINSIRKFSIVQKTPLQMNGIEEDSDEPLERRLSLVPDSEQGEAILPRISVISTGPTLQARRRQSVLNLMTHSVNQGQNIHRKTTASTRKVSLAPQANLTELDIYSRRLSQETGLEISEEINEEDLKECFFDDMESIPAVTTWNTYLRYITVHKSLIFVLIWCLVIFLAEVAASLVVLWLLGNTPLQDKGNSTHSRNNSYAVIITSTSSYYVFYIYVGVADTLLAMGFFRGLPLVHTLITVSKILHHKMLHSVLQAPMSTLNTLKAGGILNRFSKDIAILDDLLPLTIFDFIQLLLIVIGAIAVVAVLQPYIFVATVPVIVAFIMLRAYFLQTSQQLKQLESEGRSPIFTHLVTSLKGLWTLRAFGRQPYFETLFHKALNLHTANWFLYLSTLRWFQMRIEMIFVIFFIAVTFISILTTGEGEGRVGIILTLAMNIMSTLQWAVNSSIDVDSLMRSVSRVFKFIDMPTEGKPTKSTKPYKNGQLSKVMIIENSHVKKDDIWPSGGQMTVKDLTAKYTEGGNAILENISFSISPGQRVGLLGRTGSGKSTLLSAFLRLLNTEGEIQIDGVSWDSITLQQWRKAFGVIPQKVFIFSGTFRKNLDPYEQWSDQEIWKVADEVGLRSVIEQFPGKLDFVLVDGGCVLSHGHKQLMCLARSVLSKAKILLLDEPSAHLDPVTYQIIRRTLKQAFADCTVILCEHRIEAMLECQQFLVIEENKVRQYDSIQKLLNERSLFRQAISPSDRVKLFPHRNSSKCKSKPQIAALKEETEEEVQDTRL
method notes: YFP-halide influx assay for the CFTR-ΔF508 mutation (384 well, CFBE41o- cells, FDSS/μCell)
Assay type: cell-based
measurement parameters: forskolin 10.67 μM, fluorescence after 36 seconds, read-out: EC50 measured by YFP-halide influx assay for the CFTR-ΔF508
Would you kindly list log10 EC50 for each of these compounds?
Annotation: log10 of EC50, nM basis.

Example cases with answers are listed next.
1) CC1(C)Cc2c(sc(NC(=O)C3(CO)CCC3)c2C(N)=O)C(C)(C)O1 :: 1.55
2) CC1(C)Cc2c(sc(NC(=O)C3CCCO3)c2C(N)=O)C(C)(C)O1 (centres unmarked) :: 2.78
3) CCc1n[nH]c(C(=O)Nc2sc3c(c2C(N)=O)CC(C)(C)OC3(C)C)c1C :: 0.87
4) Cc1nc(C(=O)Nc2sc3c(c2C(N)=O)CC(C)(C)OC3(C)C)co1 :: 2.29

Now take the following compound into account.
I am curious: what log10 EC50 value has been reported for CC1(C)Cc2c(sc(NC(=O)[C@@H](O)C(C)(C)C)c2C(N)=O)C(C)(C)O1 ?
0.34
